Biological target: ternary complex consisting of GFP-ABD-L253P, Lifeact-mCherry, and actin (Homo sapiens, UniProt O15020, L253P)
Construct: L252P β-III-spectrin (human) ABD residues 1-284; expressed in transfected cells; host or cells: HEK293-6E, pTT5 vector, transient
Sequence (O15020 1-284 L253P, one chain of several): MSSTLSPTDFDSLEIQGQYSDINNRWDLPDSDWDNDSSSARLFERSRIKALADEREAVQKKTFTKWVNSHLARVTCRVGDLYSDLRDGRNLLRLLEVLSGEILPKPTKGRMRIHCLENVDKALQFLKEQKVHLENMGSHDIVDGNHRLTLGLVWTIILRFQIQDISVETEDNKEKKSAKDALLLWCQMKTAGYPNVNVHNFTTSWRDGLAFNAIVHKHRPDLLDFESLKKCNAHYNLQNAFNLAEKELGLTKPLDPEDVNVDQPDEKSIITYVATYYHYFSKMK
Test: Primary live-cell time-resolved FRET assay (GFP-ABD-L253P plus Lifeact-mCherry)
Format: cell-based
Conditions: LOPAC compounds 10 μM, 120 min
experimental_endpoint: effect on FRET in primary screen (Hit, 4SD threshold)

Below, each entry is followed by its recorded effect on FRET in primary screen (Hit, 4SD threshold) result.
1) CC(C)(Sc1ccc(CCN(CCCCC2CCCCC2)C(=O)NC2CCCCC2)cc1)C(=O)O: decrease FRET
2) Clc1ccc(C(c2ccc(Cl)cc2)n2cc[n+](CC(OCc3ccc(Cl)cc3Cl)c3ccc(Cl)cc3Cl)c2)cc1 (stereo not shown): decrease FRET
3) CCCCCCCC/C=C\CCCCCCCC(=O)NCc1ccc(O)c(OC)c1: decrease FRET
4) CCCCCCCCCCCCCCCC(=O)OC(CC(=O)[O-])C[N+](C)(C)C (racemic): decrease FRET
5) O=C(O)c1cc([N+](=O)[O-])ccc1NCCCc1ccccc1: decrease FRET
6) CC(C)(C)c1ccc(/C=C/C(=O)Nc2ccc3c(c2)OCCO3)cc1: decrease FRET

Prompt: I'd like to know its effect on FRET in primary screen (Hit, 4SD threshold). The compound in question is "CCCc1c(-c2ccc(O)cc2)nn(-c2ccc(O)cc2)c1-c1ccc(O)cc1"
Response: decrease FRET
